Origin of values: patent US10670605B2

- Target: XPO1 C528 (O14980) (Homo sapiens, UniProt O14980)
- Sequence (O14980 whole entry): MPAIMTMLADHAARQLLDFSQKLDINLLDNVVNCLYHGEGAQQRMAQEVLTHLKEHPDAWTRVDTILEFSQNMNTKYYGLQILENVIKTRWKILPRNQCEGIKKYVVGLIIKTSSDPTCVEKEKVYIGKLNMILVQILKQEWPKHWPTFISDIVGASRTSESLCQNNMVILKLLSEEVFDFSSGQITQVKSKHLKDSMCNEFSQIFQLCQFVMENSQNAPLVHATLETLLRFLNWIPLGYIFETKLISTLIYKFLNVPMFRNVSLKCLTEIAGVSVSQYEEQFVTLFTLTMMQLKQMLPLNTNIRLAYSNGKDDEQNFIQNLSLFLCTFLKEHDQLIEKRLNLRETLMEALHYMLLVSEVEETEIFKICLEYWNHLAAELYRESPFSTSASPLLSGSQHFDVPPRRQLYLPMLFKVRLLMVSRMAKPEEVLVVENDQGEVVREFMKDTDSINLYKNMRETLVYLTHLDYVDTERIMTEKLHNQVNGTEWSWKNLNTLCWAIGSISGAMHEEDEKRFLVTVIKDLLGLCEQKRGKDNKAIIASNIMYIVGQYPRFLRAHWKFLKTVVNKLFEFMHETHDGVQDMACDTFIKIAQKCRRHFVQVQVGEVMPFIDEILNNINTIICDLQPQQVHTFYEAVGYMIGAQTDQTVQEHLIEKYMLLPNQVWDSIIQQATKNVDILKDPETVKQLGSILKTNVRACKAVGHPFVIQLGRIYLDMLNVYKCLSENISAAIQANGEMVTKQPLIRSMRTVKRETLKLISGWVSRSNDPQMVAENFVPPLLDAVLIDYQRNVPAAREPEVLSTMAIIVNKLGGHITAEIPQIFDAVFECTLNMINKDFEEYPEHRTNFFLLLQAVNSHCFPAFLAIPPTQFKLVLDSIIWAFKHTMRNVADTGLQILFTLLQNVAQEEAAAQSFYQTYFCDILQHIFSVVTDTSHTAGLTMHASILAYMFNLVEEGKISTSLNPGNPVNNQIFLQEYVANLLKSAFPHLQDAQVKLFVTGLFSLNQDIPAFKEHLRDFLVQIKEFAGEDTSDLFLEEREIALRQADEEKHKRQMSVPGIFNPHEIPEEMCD
- Assay Remarks: Competitive isoTOP-ABPP, cell lysates
- Assay type: binding
- Measurement Parameters: 500 μm, in-vitro_ramos_231
Measured isoTOP-ABPP reactivity ratio, O14980_C528 of individual entries
Readout Kind: isoTOP-ABPP reactivity ratio, O14980_C528

| Structure Notation | Recorded Value |
| --- | --- |
| CC(C)(C)c1cc(NC(=O)CCl)on1 | 1.7 |
| C=CC(=O)Nc1cc(F)c(N2CCN(C(=O)OC(C)(C)C)CC2)c(F)c1 | 1.0 |
| C=CC(=O)N(Cc1cccnc1)c1cc(C(F)(F)F)cc(C(F)(F)F)c1 | 5.2 |
| Cc1ccc(C=C(C#N)C(=O)NCCN2CCOCC2)cc1 | 0.6 |
